- Tested on: IGROV1 ovarian
- ASSAY_PROCEDURE: NCI-60 one-dose screen, 48 h
- EXPERIMENTAL_CONDITIONS: 10 µM unless noted
The panel holds about 83,000 compounds, 20% with a hit somewhere; the sample as a whole holds those more often. Active and inactive are the calls of the source. How the source made its calls: active means growth percent below 10; inactive means the rest.
Can you answer with just one of these options? 1 (active), 0 (inactive)

Worked examples, 4 molecules total:
| MOLECULE | LABEL_VALUE |
| --- | --- |
| Cc1cc(C(NC(=O)CCCCCNc2cccc3c2C(=O)N(C2CCC(=O)NC2=O)C3=O)c2ccc3c(c2)OC(F)(F)O3)c(O)c2ncccc12 (configuration not stated) | 0 |
| CC(=O)N1N=C(c2cccc(-n3cccc3)c2)CC1c1cccc(F)c1 (configuration not stated) | 0 |
| NC(N)=Nc1ccc(Oc2cccc(NC(N)=Nc3ccc(Br)c(C(F)(F)F)c3)c2)cc1 | 1 |
| O=C(CCC(=O)N1CCOCC1)OCCCCCCSc1ccc([N+](=O)[O-])c2nonc12 | 1 |

Prompt: Field: outcome | Entry: Oc1cccc2ccc(-c3nnc(SCc4ccc(O)c5ncccc45)o3)nc12
Response: 0

Prompt: Let us now turn to COc1ccc(/C=C(\C#N)C(=O)N2c3ccccc3Sc3ccc(SC)cc32)cc1F
Response: 0

Prompt: Similarly, COc1ccc2[nH]cc(/C=N/Nc3nc4ccccc4s3)c2c1 ?
Response: 0
